All values here come from the METLIN SMRT retention time set (Domingo-Almenara et al. 2019).

procedure-text: gradient 5% acetonitrile 3 min, to 50% in 2 min, to 85% in 15 min, held 3 min, 100 µL/min
measurement-parameters: column: Zorbax Extend-C18 2.1 x 50 mm; eluents: water / acetonitrile, 0.1% formic acid
Provide the reported RP-LC retention time of each item.
Quote the value and follow it with the unit of measurement.

Give the value of RP-LC retention time reported for the following: O=C(c1cccc2[nH]ccc12)N1CC(Oc2cccc(-c3nc(-c4ccccc4)no3)c2)C1
1090 s

Consider the compound Cc1cccc(CC(=O)NCCCN2CCN(c3ccccc3)CC2)c1 and give its recorded RP-LC retention time.
601 s

Using known records, supply RP-LC retention time for CC(C)Cn1cc(CCNC(=O)Nc2cccc(Br)c2)c2cccnc21
904 s

Respond only with RP-LC retention time recorded for O=C(CCCc1nc(-c2ccccc2)no1)Nc1nc(-c2ccccc2)cs1
1080 s

Look up and state reported RP-LC retention time for COC(=O)c1ccc(CSc2nccc3c(OC)cccc23)o1
1100 s

Indicate the recorded RP-LC retention time value for this compound: O=C(Nc1ccc(F)cc1)C1CCCN(S(=O)(=O)c2c[nH]c(C(=O)N3CCCC3)c2)C1 (centres undefined)
787 s

Give me measured RP-LC retention time, please, for this compound: COCCC(=O)Nc1ccc2c(c1)Sc1ncccc1C(=O)N2C
612 s

Answer with the recorded RP-LC retention time of COCCC(=O)N1CCCn2nc(-c3cccs3)cc2C1 only.
682 s

Using the record for N#Cc1ccc(C(=O)N2CCCC2c2nc(-c3ccccc3)n[nH]2)cc1 (centres undefined) , state its measured RP-LC retention time.
696 s

Given the compound CCOC(=O)N1CCN(C(=O)CCc2csc(NC(=O)c3ccc(F)cc3)n2)CC1 , write its reported RP-LC retention time.
713 s

Note RP-LC retention time for the compound shown: CCn1cc(CN2CCC(C(=O)NC(C)c3ccccc3)CC2)c2cc(Cl)ccc21 (centres undefined)
753 s

Tell me measured RP-LC retention time for Cc1ccc(NC(=O)N2CC(c3nc(C(C)C)nn3C)C2)cc1 please.
689 s

Give me measured RP-LC retention time, please, for this compound: CCn1nccc1-c1cccc(-c2noc(C3CCN(S(=O)(=O)c4ccc(Cl)cc4)CC3)n2)c1
932 s

Quote RP-LC retention time reported for Cc1cc2n(n1)CCC(=O)N2CCCC(=O)NCCCc1ccccc1 please.
691 s

Give the reported value of RP-LC retention time for this record: COc1ccc(-c2noc(C3CC(=O)N(c4ccc(C)c(C)c4)C3)n2)cc1OC (centres undefined)
928 s

Determine from records and report RP-LC retention time for CSc1ccc(-c2nc3ccc(Cl)cn3c2Nc2ccc(C)cc2)cc1
954 s

// Input: O=C(CCn1nnc2cc(-c3noc(Cc4ccccc4Br)n3)ccc21)N1CCOCC1 . Output its RP-LC retention time only.
860 s

Retrieve RP-LC retention time measured for COc1cccc(-c2nc(C3CCN(S(=O)(=O)c4c(C)cc(C)cc4C)CC3)no2)c1 and print it.
1320 s

Give recorded RP-LC retention time. COc1ccc(F)cc1S(=O)(=O)N1CC(F)(F)C[C@H]1CN1CCc2ccccc2C1
739 s

* * *

procedure-text: gradient 5% acetonitrile 3 min, to 50% in 2 min, to 85% in 15 min, held 3 min, 100 µL/min
measurement-parameters: column: Zorbax Extend-C18 2.1 x 50 mm; eluents: water / acetonitrile, 0.1% formic acid
Exercise: for every item that follows, state its recorded RP-LC retention time.
Number in s, nothing else.

Give the value of RP-LC retention time reported for the following: COc1cc(F)ccc1-c1ccnc2ncnn12
681

// Input: Cc1cccc(Cn2cc(C(=O)O)c(S(=O)(=O)N3CCSCC3)n2)c1 . Output its RP-LC retention time only.
914

Tell me measured RP-LC retention time for Cc1[nH]c(C(=O)N2CCCC(C(=O)NC3CCCCC3)C2)c(C)c1C(=O)OC(C)C (stereo not given) please.
861

Hello, please tell me recorded RP-LC retention time for this one: O=C(NCc1cccnc1)C1c2ccccc2C(=O)N(Cc2ccccc2)C12CCCC2 (stereo not given)
649

Quickly give me recorded RP-LC retention time for COCc1nc(CCNC(=O)NCC(C)C)no1
626

Output measured RP-LC retention time for this item: Cc1noc(C)c1-c1ccc(S(=O)(=O)N2CCN(c3ccccn3)CC2)cc1
676

State, in one line, measured RP-LC retention time of CCc1nn2c(CNC(=O)c3cccn3C)c(-c3ccccc3)nc2s1
882

Report RP-LC retention time, nothing else, for this compound: COc1ccc(NC(=O)NC2CCN(c3cc(N4CCCC4)cnn3)C2)cc1Cl (stereo not given)
584

State, in one line, measured RP-LC retention time of Cc1noc(-c2cc(=O)n(CC(=O)NCc3ccc4c(c3)OCO4)c3ccccc23)n1
802

Using the record for CC(C)N1C(=O)c2cccnc2Sc2cc(NC(=O)c3cccnc3)ccc21 , state its measured RP-LC retention time.
662

* * *

procedure-text: gradient 5% acetonitrile 3 min, to 50% in 2 min, to 85% in 15 min, held 3 min, 100 µL/min
measurement-parameters: column: Zorbax Extend-C18 2.1 x 50 mm; eluents: water / acetonitrile, 0.1% formic acid
Note to self: use rule met only for RP-LC retention time readings below 800 s; a reading exactly at 800 s still gets rule not met.

Determine if COc1ccc(NS(=O)(=O)c2cc3n(c2)CCCN(C)C3=O)cc1Cl shows RP-LC retention time strictly lower than 800 s.
rule met

Given the entry Cn1nnnc1C1CCCN(C(=O)C2CC2)C1 (centres undefined) , would its reported RP-LC retention time be below 800 s?
rule met

Lab note: confirm whether the reported RP-LC retention time for this compound is below 800 s, equality not counting. compound: Cn1nc2c(c1NC(=O)c1cc(C(F)(F)F)cc(C(F)(F)F)c1)CCC2
rule not met

RP-LC retention time under 800 s? Item: CC(C)C(=O)N1CCc2c(c(C(=O)N3CCC(C(=O)N4CCC5(CC4)OCCO5)CC3)nn2C)C1
rule met

Criterion: RP-LC retention time strictly below 800 s. Is it met by O=C(Cn1cnc2c(sc3nc(-c4ccccc4)ccc32)c1=O)Nc1ccc(F)c(Cl)c1 ?
rule not met

Just wondering, is RP-LC retention time of Cc1nc([C@@H]2CN(C(=O)CCc3c(C)noc3C)C[C@H]2C(N)=O)n[nH]1 below 800 s?
rule met

Report whether reported RP-LC retention time is lower than 800 s (strictly) for CCn1c(C)c(-c2nc(C3CC3)no2)c(S(=O)(=O)NCC2CCCO2)c1C (centres undefined)
rule met

* * *

Answer each item with its documented RP-LC retention time.
procedure-text: gradient 5% acetonitrile 3 min, to 50% in 2 min, to 85% in 15 min, held 3 min, 100 µL/min
measurement-parameters: column: Zorbax Extend-C18 2.1 x 50 mm; eluents: water / acetonitrile, 0.1% formic acid
Write the value in s as a bare number.

Tell me measured RP-LC retention time for O=C(Nc1cnn(-c2ncncc2N2CCOCC2)c1)c1cc2c(s1)CCCC2 please.
789

Hello, please tell me recorded RP-LC retention time for this one: O=C(Nc1ccc(Oc2ccc(NC(=O)Nc3ccc([N+](=O)[O-])cc3)cc2)cc1)Nc1ccc([N+](=O)[O-])cc1
1110

Tell me RP-LC retention time reported for COc1ccc(NC(=O)Cn2nc3c4ccccc4ncn3c2=O)cc1Cl
674

Provide only the value of recorded RP-LC retention time for Cc1nnc2c(NC(=O)c3ccccn3)cccn12
659

Consider the compound O=C(CN1CCN(C(=O)Nc2ccc(Br)cc2)CC1=O)NC1CCCCCC1 and give its recorded RP-LC retention time.
786

Output RP-LC retention time of O=C(NCCc1cccs1)c1ccc(CN2CC(=O)N3CCCCC3C2=O)cc1 (configuration not stated)
692

Write down RP-LC retention time measured for item Cn1nccc1-c1cccc(-c2noc(Cc3ccc(F)cc3)n2)c1
1040

Tell me its RP-LC retention time given CCOc1ccc(C(=O)Nc2nc(-c3ccccc3)cs2)cc1Cl as the entry.
1260

Give RP-LC retention time for the following compound: CCOc1ccc(-c2noc(Cc3nc(-c4ccc(F)cc4)cs3)n2)cc1
1290

Recall and state the measured RP-LC retention time for CCN(CC)S(=O)(=O)c1ccc2c(c1)N(CC(=O)NCc1cccnc1)C(=O)C1CCCCN21 (configuration not stated) .
653

Indicate its recorded RP-LC retention time; the compound in question is CC(=O)N1CCCC1c1nc2ccccc2n1CC(=O)N1CCCCC1 (configuration not stated)
594

State, in one line, measured RP-LC retention time of COc1ccc(NC(=O)NC2CCN(c3ccc(F)cc3)C2=O)c(OC)c1 (configuration not stated)
716

Specify measured RP-LC retention time for COc1ccc(-c2nnc(COc3ccc(NC(=O)c4ccnc(Cl)c4)cc3)o2)cc1 .
868

Give recorded RP-LC retention time. Cc1ccc(CNC(=O)Cn2c(=O)c(S(=O)(=O)c3ccccc3)cc3ccccc32)cc1
900

Given COCCOC1CN(C2CCN(Cc3cccc(C#N)c3)CC2)C12CCCCC2 (configuration not stated) , respond with its RP-LC retention time.
557

Read the entry COc1ccc(CNC(=O)C2CCCN(c3nc4c(s3)c(C)nn4-c3ccc(Cl)cc3)C2)cc1 (configuration not stated) and write its reported RP-LC retention time.
1200

Check the records and state RP-LC retention time for O=C(Nc1cccc(-c2ccccc2)c1)N1CCN(C(=O)Nc2cccc(-c3ccccc3)c2)CC1
980

Name the recorded RP-LC retention time of the item COC(=O)c1cc(OCc2cccc(OC)c2)c2cc(OC)ccc2n1 in your answer.
901

Identify measured RP-LC retention time corresponding to COCCn1c(C)cc(O)c(C(c2ccc(Cl)cc2)N2CCC(C)CC2)c1=O (configuration not stated)
644

Give RP-LC retention time for Oc1ccccc1-c1nc2ccc(Cl)cn2c1Nc1ccc2c(c1)OCCO2
879

Respond only with RP-LC retention time recorded for O=C(Cn1ccn2nc(-c3ccccc3)c(CO)c2c1=O)Nc1ccc2c(c1)CCC2
906

Supply measured RP-LC retention time of CCc1csc(-c2ccc(N3CCN(C(=O)c4ccc(F)cc4)CC3)nc2)n1 in your reply.
921

State its RP-LC retention time for this compound: CCOC(=O)C(C(=O)N1CCN(C)CC1)C1CCCCC1 (configuration not stated)
629

Given O=C(NCc1ccc(F)cc1F)c1csc(C(=O)NC2CC2)n1 , respond with its RP-LC retention time.
789

Give the reported value of RP-LC retention time for this record: Cc1cccc(OCC(=O)N2CCN(c3cc(C)n4cnnc4n3)CC2)c1
621

Please indicate RP-LC retention time recorded for c1ccc(-c2nc(CC3CCNC3)no2)cc1 (configuration not stated)
608

Using the record for Cc1nn(C)c2nc(OCC(=O)Nc3ccc(Br)cc3F)cc(C(F)(F)F)c12 , state its measured RP-LC retention time.
1080

State its RP-LC retention time: CC(C)c1ccc(NC(=O)C2CCN(C(=O)c3ncn4c3COC(c3ccc(F)cc3)C4)CC2)cc1 (configuration not stated)
949

Read off the recorded RP-LC retention time for CC(C)CCNC(=O)C1(C)CN(S(=O)(=O)c2ccccc2)CC(=O)N1c1ccc(F)cc1F (configuration not stated)
972

Give the value of RP-LC retention time reported for the following: O=C(C1CCCN(c2ncnc3c2nc2n3CCCCC2)C1)N1CC=C(c2ccccc2)CC1 (configuration not stated)
922

Annotate the compound C[C@H]1CN(C(=O)Nc2ccc(F)cc2)C[C@@H]1c1nc(-c2cccnc2)no1 with its measured RP-LC retention time.
760

Annotate the compound CCN(C(=O)Cn1c(CNC(=O)c2ccco2)nc2ccccc21)c1ccccc1 with its measured RP-LC retention time.
687

Look up and state reported RP-LC retention time for CN(C)c1cc(N2CCCC(NC(=O)Cc3ccsc3)C2)ncn1 (configuration not stated)
870

Consider the compound CN1c2cc(C(=O)NCc3ccc(F)c(Cl)c3)ccc2C(=O)N2CCCCC21 (configuration not stated) . State its measured RP-LC retention time.
860

Read off the recorded RP-LC retention time for COc1cccc(N2C(=O)C3N=NN(Cc4nc(-c5ccc(C)c(C)c5)no4)C3C2=O)c1 (configuration not stated)
1030

// Input: O=C(c1ccc2[nH]ccc2c1)N1C[C@@H]2C[C@H]1C[C@@H]2NS(=O)(=O)c1ccccc1 . Output its RP-LC retention time only.
730

Consider the compound CN1C(=O)c2cc(C(=O)NCCCc3ccccc3)nn2CC1(C)C(=O)NC1CCCC1 (configuration not stated) and give its recorded RP-LC retention time.
826
